assayed target: T1, human SLITRK6 extracellular domain linked to his tag (human, UniProt Q9H5Y7 27-608)
T1 construct: extracellular domain; also called huSLITRK6; Hu SLITRK6; not shown: his tag
experiment: ELISA, coated antigen
pEC50: −log10 of the molar value.

>  <binder>
hu1H2-03 (antibody, V domains shown, see m20) VH: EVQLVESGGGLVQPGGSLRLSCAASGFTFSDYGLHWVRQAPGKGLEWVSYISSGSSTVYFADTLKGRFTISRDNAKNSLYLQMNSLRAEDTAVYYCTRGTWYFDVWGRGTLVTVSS VL: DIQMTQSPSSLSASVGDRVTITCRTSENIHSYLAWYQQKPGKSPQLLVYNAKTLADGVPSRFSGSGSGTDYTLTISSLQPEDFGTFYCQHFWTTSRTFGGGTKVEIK

>  <pEC50>
10.40

$$$$
>  <binder>
Sirtratumab (antibody, V domains shown, Prior-art benchmark antibody; also called Sirtratuzumab) VH: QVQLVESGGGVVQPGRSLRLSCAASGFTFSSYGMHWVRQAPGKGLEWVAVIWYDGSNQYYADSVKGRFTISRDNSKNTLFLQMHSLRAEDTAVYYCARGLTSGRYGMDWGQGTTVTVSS VL: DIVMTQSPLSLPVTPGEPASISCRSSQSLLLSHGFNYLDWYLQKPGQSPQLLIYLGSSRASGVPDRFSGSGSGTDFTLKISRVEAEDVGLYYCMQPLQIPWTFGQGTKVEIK

>  <pEC50>
10.22

$$$$
>  <binder>
phA108 (antibody, V domains shown, From phage display, then full-length construction; Only the variable regions are tied to the name) VH: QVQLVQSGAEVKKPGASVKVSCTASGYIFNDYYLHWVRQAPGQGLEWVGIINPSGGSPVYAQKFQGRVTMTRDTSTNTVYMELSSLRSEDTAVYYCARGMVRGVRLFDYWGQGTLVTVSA VL: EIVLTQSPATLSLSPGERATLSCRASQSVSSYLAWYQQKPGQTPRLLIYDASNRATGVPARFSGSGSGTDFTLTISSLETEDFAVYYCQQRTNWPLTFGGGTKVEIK

>  <pEC50>
10.30

$$$$

Every entry's value here was drawn from patent US20250296992A1.
